- TESTED SYSTEM: human 5-HT2A receptor (Homo sapiens)
- Construct: expressed in transfected cells; host or cells: CHO-K1
- Sequence (P28223 whole entry): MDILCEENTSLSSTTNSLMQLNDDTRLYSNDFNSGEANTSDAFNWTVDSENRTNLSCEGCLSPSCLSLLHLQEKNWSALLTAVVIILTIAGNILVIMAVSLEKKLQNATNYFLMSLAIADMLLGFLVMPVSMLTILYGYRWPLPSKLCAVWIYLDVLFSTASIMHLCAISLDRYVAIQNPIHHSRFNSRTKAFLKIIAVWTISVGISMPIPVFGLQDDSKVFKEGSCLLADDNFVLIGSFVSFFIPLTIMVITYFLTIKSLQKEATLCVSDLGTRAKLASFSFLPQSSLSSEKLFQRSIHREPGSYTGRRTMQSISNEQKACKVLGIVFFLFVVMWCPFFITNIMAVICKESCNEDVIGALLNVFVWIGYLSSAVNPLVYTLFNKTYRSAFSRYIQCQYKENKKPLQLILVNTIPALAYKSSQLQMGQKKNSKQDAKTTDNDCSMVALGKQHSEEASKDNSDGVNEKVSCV
- ASSAY TEXT: Human 5-HT2A functional assay (calcium mobilisation in CHO-K1 cells)
- Format: cell-based
- CONDITION INFO: potency in functional assay; agonism (first addition), calcium mobilisation; listed as 4.D
pEC50: −log10 of the molar value.
PROPERTY NAME: pEC50

* CC1CNCc2cccc3c2N1CCC3C(F)(F)F (single isomer, unassigned) [Isomer 4.D] | < 5.00

----------
- TESTED SYSTEM: human 5-HT2A receptor (Homo sapiens)
- Construct: expressed in transfected cells; host or cells: CHO-K1
- ASSAY TEXT: Human 5-HT2A functional assay (calcium mobilisation in CHO-K1 cells)
- Assay type: cell-based
- CONDITION INFO: potency in functional assay; agonism (first addition), calcium mobilisation; listed as 5.C
pEC50: −log10 of the molar value.
PROPERTY NAME: pEC50

- CC1CNCc2cccc3c2N1CCC3C(F)F (single isomer, unassigned) [Isomer 5.C]: < 5.00

----------
- TESTED SYSTEM: 5-HT2C receptor (Homo sapiens, UniProt P28335)
- Construct: host or cells: U2OS
- Sequence (P28335 33-458): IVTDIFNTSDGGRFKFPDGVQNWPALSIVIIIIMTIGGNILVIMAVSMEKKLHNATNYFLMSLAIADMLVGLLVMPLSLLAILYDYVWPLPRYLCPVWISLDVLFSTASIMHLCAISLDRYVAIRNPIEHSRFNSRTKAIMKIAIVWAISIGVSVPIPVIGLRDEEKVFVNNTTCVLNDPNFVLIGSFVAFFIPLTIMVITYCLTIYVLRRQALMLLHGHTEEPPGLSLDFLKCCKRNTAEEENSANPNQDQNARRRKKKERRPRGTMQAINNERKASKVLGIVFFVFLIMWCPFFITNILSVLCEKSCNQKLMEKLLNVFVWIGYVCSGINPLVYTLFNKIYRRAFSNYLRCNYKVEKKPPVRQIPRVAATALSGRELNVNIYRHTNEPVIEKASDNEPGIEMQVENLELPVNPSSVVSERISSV
- Sequence (P32121 whole entry partner): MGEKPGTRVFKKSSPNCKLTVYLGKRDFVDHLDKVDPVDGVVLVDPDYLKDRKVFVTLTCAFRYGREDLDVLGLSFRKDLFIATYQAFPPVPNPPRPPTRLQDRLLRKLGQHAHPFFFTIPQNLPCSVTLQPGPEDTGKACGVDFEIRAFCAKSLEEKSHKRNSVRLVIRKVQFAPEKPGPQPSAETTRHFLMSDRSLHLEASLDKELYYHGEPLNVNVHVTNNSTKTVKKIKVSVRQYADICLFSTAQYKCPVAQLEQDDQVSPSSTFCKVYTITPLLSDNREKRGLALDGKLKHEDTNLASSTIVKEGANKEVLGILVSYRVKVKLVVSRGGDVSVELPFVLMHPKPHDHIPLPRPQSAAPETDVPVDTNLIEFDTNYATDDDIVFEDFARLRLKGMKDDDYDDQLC
- ASSAY TEXT: Human 5-HT2C functional assay (beta-arrestin2 recruitment, U2OS_HTR2C_β-Arrestin cells)
- Format: cell-based
- CONDITION INFO: read-out: % efficacy (5-HT2C), relative efficacy vs 10 μM 5-HT or maximal 5-HT effect (100%)
Listed below: Emax values for each entry.
PROPERTY NAME: Emax (%)

* CC1CNCc2cccc3c2N1CCC3C(F)(F)F (single isomer, unassigned) [Isomer 4.A] | 101
* CC1CNCc2cccc3c2N1CCC3CF (stereo not drawn) [Example 7] | 107
* CC1CNCc2cccc3c2N1CCC3C(F)(F)F (stereo not drawn) [Example 4] | 104
* COCC1CCN2c3c(cccc31)CNCC2C (stereo not drawn) [Example 9] | 82
* CC1CNCc2cccc3c2N1CCC3C(F)F (stereo not drawn) [Example 5] | 95
* CCOCC1CCN2c3c(cccc31)CNCC2C (stereo not drawn) [Example 8] | 93

// data source = patent US9540376B2
